Provide the reported pIC50 of each item.
- Test Target: Human COX I (Homo sapiens)
- Procedure Details: Evaluation of COX I activity in vitro (recombinant enzyme, PGE2 ELISA)
- Run Conditions: 10 μM arachidonic acid, pre-incubation 10-20 minutes, pH 8.0; read-out: Human COX I ID50
// pIC50 is dimensionless: -log10 of concentration (M)

// recorded pIC50 for Cc1ccc2c(c1)SCc1c(C(F)(F)F)nn(-c3ccc(S(N)(=O)=O)cc3)c1-2 : 5.34

// recorded pIC50 for NS(=O)(=O)c1ccc(-n2nc(C(F)(F)F)c3oc4ccccc4c32)cc1 : 4.95

// recorded pIC50 for Cc1ccc2c(c1)CSc1c(C(F)(F)F)nn(-c3ccc(S(C)(=O)=O)cc3)c1-2 : 5.43

// recorded pIC50 for COc1ccc2c(c1F)CSCc1c(C(F)(F)F)nn(-c3ccc(S(N)(=O)=O)cc3)c1-2 : 4.13

// recorded pIC50 for COc1ccc2c(c1F)CSc1c(C(F)(F)F)nn(-c3ccc(S(N)(=O)=O)cc3)c1-2 : 5.57

// recorded pIC50 for NS(=O)(=O)c1ccc(-n2nc(C(F)(F)F)c3c2-c2cc(F)ccc2OC3)cc1 : 4.61

// recorded pIC50 for NS(=O)(=O)c1ccc(-n2nc(C(F)(F)F)c3c2-c2ccc(F)cc2CS3)cc1 : 6.52

// recorded pIC50 for NS(=O)(=O)c1ccc(-n2nc(C(F)(F)F)c3c2-c2ccc(Cl)cc2CS3)cc1 : 6.52

* * *

- Test Target: Human COX I (Homo sapiens)
- Procedure Details: Evaluation of COX I activity in vitro (recombinant enzyme, PGE2 ELISA)
- Run Conditions: 10 μM arachidonic acid, pre-incubation 10-20 minutes, pH 8.0; read-out: Human COX I ID50
Readout Kind: IC50

// recorded IC50 for NS(=O)(=O)c1ccc(-n2nc(C(F)(F)F)c3c2-c2cc(Cl)sc2C[S+]3[O-])cc1 (centres unmarked) : 91.1 µM

// recorded IC50 for COc1ccc2c(c1F)C[S+]([O-])c1c(C(F)(F)F)nn(-c3ccc(S(N)(=O)=O)cc3)c1-2 (centres unmarked) : > 100 µM

// recorded IC50 for COc1ccc2c(c1)SCc1c(C(F)(F)F)nn(-c3ccc(S(N)(=O)=O)cc3)c1-2 : < 0.1 µM

// recorded IC50 for Cc1ccc2c(c1)CSc1c(C(F)(F)F)nn(-c3ccc(S(N)(=O)=O)cc3)c1-2 : 0.8 µM

// recorded IC50 for NS(=O)(=O)c1ccc(-n2nc(C(F)(F)F)c3c2-c2ccc(Cl)cc2SC3)cc1 : 0.3 µM

// recorded IC50 for COc1ccc2c(c1F)CSc1c(C(F)F)nn(-c3ccc(S(N)(=O)=O)cc3)c1-2 : > 100 µM

// recorded IC50 for COc1ccc2c(c1F)CSc1c(C(F)(F)F)nn(-c3ccc(S(C)(=O)=O)cc3)c1-2 : > 100 µM

// recorded IC50 for COC(=O)c1nn(-c2ccc(S(N)(=O)=O)cc2)c2c1SCc1cc(F)ccc1-2 : 13.2 µM

* * *

- Test Target: Human COX I (Homo sapiens, UniProt P23219)
- Sequence (P23219 24-599): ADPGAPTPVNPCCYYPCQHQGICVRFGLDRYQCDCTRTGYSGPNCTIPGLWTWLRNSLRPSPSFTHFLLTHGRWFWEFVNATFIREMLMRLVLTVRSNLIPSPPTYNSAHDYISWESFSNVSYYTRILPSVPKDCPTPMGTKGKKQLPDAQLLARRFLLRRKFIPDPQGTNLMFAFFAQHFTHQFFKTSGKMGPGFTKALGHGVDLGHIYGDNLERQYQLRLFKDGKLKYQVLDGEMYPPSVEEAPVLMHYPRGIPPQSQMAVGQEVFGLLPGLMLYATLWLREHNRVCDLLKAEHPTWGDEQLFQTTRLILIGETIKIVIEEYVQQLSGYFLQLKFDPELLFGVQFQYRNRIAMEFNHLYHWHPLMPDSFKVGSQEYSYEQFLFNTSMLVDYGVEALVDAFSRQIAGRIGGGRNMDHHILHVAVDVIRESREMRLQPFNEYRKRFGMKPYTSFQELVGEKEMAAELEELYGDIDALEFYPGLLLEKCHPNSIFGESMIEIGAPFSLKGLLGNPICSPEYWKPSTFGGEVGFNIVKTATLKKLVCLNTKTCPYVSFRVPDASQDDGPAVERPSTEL
- Procedure Details: Evaluation of COX I activity in vitro (recombinant enzyme, PGE2 ELISA)
- Run Conditions: 10 μM arachidonic acid, pre-incubation 10-20 minutes, pH 8.0; read-out: Human COX I ID50
Readout Kind: IC50 (µM)
Kindly answer with a numeric value in µM, unit omitted.

// recorded IC50 for NS(=O)(=O)c1ccc(-n2nc(C(F)(F)F)c3c2-c2ccc(F)cc2SC3)cc1 : 6.2

// recorded IC50 for N#Cc1nn(-c2ccc(S(N)(=O)=O)cc2)c2c1CSc1ccccc1-2 : 51

// recorded IC50 for NS(=O)(=O)c1ccc(-n2nc(C(F)(F)F)c3c2-c2cc(Cl)sc2CS3)cc1 : 8.7

* * *

Provide the reported pIC50 of each item.
- Test Target: Human COX II (Homo sapiens)
- Procedure Details: Evaluation of COX II activity in vitro (recombinant enzyme, PGE2 ELISA)
- Run Conditions: 10 μM arachidonic acid, pre-incubation 10-20 minutes, pH 8.0; read-out: Human COX II ID50
// pIC50 is dimensionless: -log10 of concentration (M)

// recorded pIC50 for COC(=O)c1nn(-c2ccc(S(N)(=O)=O)cc2)c2c1COc1ccccc1-2 [Example 4] : 6.30

// recorded pIC50 for CC(C)c1cccc2c1SCc1c(C(F)(F)F)nn(-c3ccc(S(N)(=O)=O)cc3)c1-2 [Example 11] : 4.28

// recorded pIC50 for NS(=O)(=O)c1ccc(-n2nc(C(F)(F)F)c3c2-c2ccc(Cl)c(Cl)c2SC3)cc1 [Example 9] : 4.32

* * *

- Test Target: Human COX II (Homo sapiens, UniProt P35354)
- Sequence (P35354 18-604): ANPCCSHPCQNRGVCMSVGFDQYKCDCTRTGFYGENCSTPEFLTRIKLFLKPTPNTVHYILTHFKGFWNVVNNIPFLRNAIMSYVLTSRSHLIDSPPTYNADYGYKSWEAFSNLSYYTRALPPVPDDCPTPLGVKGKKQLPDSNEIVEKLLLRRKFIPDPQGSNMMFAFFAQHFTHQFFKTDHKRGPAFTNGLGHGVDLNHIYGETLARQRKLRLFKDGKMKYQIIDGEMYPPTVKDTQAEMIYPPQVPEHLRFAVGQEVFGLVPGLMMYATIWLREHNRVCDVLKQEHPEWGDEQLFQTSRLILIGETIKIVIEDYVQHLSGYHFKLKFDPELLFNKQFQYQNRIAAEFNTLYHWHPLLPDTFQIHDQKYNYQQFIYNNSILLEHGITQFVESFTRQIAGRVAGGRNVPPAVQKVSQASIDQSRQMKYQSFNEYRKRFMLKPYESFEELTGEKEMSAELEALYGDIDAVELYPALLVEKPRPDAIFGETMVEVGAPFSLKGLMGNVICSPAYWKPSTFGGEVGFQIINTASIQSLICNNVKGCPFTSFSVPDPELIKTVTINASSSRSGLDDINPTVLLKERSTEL
- Procedure Details: Evaluation of COX II activity in vitro (recombinant enzyme, PGE2 ELISA)
- Run Conditions: 10 μM arachidonic acid, pre-incubation 10-20 minutes, pH 8.0; read-out: Human COX II ID50
Readout Kind: IC50

// recorded IC50 for NS(=O)(=O)c1ccc(-n2nc(C(F)(F)F)c3c2-c2ccc(F)cc2CS3)cc1 [Example 26] : < 0.1 µM

// recorded IC50 for COc1ccc2c(c1F)CSc1c(C(F)(F)F)nn(-c3ccc(S(N)(=O)=O)cc3)c1-2 [Example 1] : < 0.1 µM

// recorded IC50 for NS(=O)(=O)c1ccc(-n2nc(C(F)(F)F)c3c2-c2ccc(F)cc2SC3)cc1 [Example 10] : < 0.1 µM

// recorded IC50 for COc1ccc2c(c1)SCc1c(C(F)(F)F)nn(-c3ccc(S(N)(=O)=O)cc3)c1-2 [Example 13] : < 0.1 µM

// recorded IC50 for NS(=O)(=O)c1ccc(-n2nc(C(F)(F)F)c3c2-c2cc(Cl)sc2CS3)cc1 [Example 21] : < 0.1 µM

// recorded IC50 for COc1ccc2c(c1)CSc1c(C(F)(F)F)nn(-c3ccc(S(N)(=O)=O)cc3)c1-2 [Example 20] : < 0.1 µM

// recorded IC50 for COc1ccc2c(c1F)CSCc1c(C(F)(F)F)nn(-c3ccc(S(N)(=O)=O)cc3)c1-2 [Example 30] : 2.2 µM

// recorded IC50 for Cc1ccc2c(c1)SCc1c(C(F)(F)F)nn(-c3ccc(S(N)(=O)=O)cc3)c1-2 [Example 14] : 0.2 µM

// recorded IC50 for COc1ccc2c(c1F)CSc1c(C(F)(F)F)nn(-c3ccc(S(C)(=O)=O)cc3)c1-2 [Example 2] : < 0.1 µM

// recorded IC50 for COC(=O)c1nn(-c2ccc(S(N)(=O)=O)cc2)c2c1CSc1ccccc1-2 [Example 8] : 0.5 µM

// recorded IC50 for Cc1ccc2c(c1)CSc1c(C(F)(F)F)nn(-c3ccc(S(N)(=O)=O)cc3)c1-2 [Example 17] : < 0.1 µM
